- System: U2OS
- test-description: Incucyte cell viability with U2OS; note: unitless GR value; below 1 slowed growth and below 0 cell loss
- Type: toxicity, cell-based
- applied-conditions: human, 0 h, 10 µM, compound concentration 10 uM, replicate number 1
The reader will find reported Growth Rate values listed item by item below.
Output spec: single numeric token, no unit.

Cc1c(NC(=O)c2cccn(-c3ccc(F)cc3)c2=O)ccc(Oc2ccnc(NC(=O)C3CC3)c2)c1C : -0.05
Cc1cc(Cn2c(N3CC4(CNC4)C3)nc3c(N4CCN(C)CC4)cc(Cl)cc32)cc(C)c1F : -1

Briefly, Growth Rate measured for "CCOc1ccc(S(=O)(=O)Nc2ccc(Cl)cc2C#Cc2cnc(C(=O)[O-])cc2OC)c2ncccc12.[K+]" : -0.87
